Where do the numbers come from? From the Human Domainome abundance scans (Beltran et al. 2025).

B1: Connector enhancer of kinase suppressor of ras 2, residues 9 to 71; numbered along this chain, Q8WXI2 (parent)
chain: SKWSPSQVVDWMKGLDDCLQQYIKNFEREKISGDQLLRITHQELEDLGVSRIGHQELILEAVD

- Variants of: B1
- Method Summary: abundance fitness (aPCA) (normalised: wild type 0, dead -1); higher = more abundant; growth selection in yeast, the domain comes from the species named
- Experimental Context: Homo sapiens
Endpoint: abundance fitness
Numbers only.

{"columns": ["Mutation", "abundance fitness"],
 "data": [
  ["C18M", -0.442],
  ["E27N", -0.535],
  ["D63R", 0.108],
  ["D63W", -0.311],
  ["I58K", -0.727]
]}

Hi team, please reply with abundance fitness for each item in this list.
1. D34P
2. E60H
3. D34L
4. R51S

Reply:
-0.105
-0.111
-0.128
0.088

Hi team, please reply with abundance fitness for each item in this list.
1. D16W
2. V62M

Reply:
1. -0.527
2. -0.552

Each variant below has a reported value. Please supply its abundance fitness.
1. Q55W
2. Q42S
3. D63I
4. G53N

Reply:
-1.14
-0.128
-0.274
0.084

Could you tell me abundance fitness for each of these variants? They are listed below.
1. I31N
2. I58T
3. L36V
4. H41C
5. G14Q

Reply:
-0.732
-0.688
-0.713
-0.157
-0.196

Quick one: give me abundance fitness for each item below, same order please.
1. C18W
2. I39W

Reply:
1. -0.991
2. -0.737

Answer for every listed entry: what is its abundance fitness? The entries follow.
1. L47M
2. L19M

Reply:
[-0.083, -0.2]

Please state, for each entry, its recorded abundance fitness.
1. K30M
2. H54C
3. I52E
4. L44Q

Reply:
1. -0.113
2. -0.835
3. -0.058
4. -0.932

Lab note: each variant below needs its abundance fitness filled in.
1. R51L
2. H41I
3. V62H
4. Y22S

Reply:
1. -0.015
2. -0.184
3. -1.04
4. -0.742
